- TESTED ON: human TLR8 (Homo sapiens, UniProt Q9NR97)
- Sequence (Q9NR97 27-1041): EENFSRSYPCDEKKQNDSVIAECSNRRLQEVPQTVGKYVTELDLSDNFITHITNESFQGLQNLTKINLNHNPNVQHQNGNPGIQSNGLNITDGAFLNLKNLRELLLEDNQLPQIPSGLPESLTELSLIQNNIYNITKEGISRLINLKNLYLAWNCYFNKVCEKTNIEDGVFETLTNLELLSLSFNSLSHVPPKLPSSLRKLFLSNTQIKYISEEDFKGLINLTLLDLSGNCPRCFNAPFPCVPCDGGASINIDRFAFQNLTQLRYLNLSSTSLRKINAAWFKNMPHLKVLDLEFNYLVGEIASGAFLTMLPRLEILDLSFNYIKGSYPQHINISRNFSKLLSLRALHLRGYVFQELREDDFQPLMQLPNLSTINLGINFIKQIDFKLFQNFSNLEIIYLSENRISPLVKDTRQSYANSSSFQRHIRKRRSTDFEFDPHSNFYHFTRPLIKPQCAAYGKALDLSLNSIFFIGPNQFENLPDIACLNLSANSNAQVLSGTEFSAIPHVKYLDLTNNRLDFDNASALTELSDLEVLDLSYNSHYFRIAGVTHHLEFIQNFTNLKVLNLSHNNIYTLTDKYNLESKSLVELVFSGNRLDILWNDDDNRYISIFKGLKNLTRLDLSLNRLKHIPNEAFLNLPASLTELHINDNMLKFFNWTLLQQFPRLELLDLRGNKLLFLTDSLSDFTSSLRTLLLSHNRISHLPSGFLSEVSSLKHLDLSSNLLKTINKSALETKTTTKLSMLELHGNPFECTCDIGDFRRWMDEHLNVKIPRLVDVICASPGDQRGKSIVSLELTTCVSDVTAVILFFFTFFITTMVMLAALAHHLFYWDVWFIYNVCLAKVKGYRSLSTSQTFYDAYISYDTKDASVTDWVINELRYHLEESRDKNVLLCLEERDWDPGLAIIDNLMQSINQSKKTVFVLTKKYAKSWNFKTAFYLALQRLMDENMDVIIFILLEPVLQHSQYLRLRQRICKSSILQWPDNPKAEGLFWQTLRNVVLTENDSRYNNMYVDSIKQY
- METHOD: HEK-Blue TLR8 NF-κB SEAP reporter assay
- CONDITION DESCRIPTION: HEK-Blue TLR8 cells, 18 h, eight concentrations (1 nM to 10 μM), mean ± SEM
pEC50: −log10 of the molar value.
OBSERVATION TYPE: pEC50

Please review the entries below; each comes with its answer.
{"MOLECULE": "CCOCc1nc2c(N)nc3ccccc3c2n1CC(C)(C)N [compound 7, reference compound]", "VALUE MEASURED": 5.23}
{"MOLECULE": "CCOCc1nc2c(NC(=O)CCCCCNC(=O)CC[C@@H](NC(=O)[C@@H](NC(=O)CNC(=O)/C=C/c3ccc(O)c(OC)c3)C(C)C)C(=O)OCC)nc3ccccc3c2n1CC(C)(C)O [compound 32]", "VALUE MEASURED": "< 5.00"}

Here's the next entry for you.
Exercise: Recorded pEC50 for CCOCc1nc2c(N)nc3ccccc3c2n1CC(C)(C)NC(=O)CCCCCNC(=O)CC[C@@H](NC(=O)[C@@H](NC(=O)CNC(=O)/C=C/c1ccc(O)c(OC)c1)C(C)C)C(=O)OCC [compound 33] , please?
Solution: < 5.00
